# TARGET_DESC: rat FAAH (Rattus norvegicus)
# Construct: made in house; host or cells: E. coli
# MEASUREMENT_NOTES: FAAH assay, rat FAAH enzyme inactivation (kinact/Ki)
# Format: biochemical
# STUDY_CONDITIONS: pH 7.4, in vitro, oleamide 50 μM, 30° C., read-out: rFAAH kinact/Ki
Outcome: Y for kinact/KI of at least 4000 M⁻¹ s⁻¹; N for anything lower.

MOLECULE	CLASS_ASSIGNMENT
Cc1noc(NC(=O)N2CCC3(CC2)C[C@H](c2ccc(OCc4ccc(F)cc4)cc2)CO3)c1C [Example 41]	Y

Would you say Cc1noc(NC(=O)N2CCC3(CC2)CC(c2noc(-c4ccc(OC(F)(F)F)cc4)n2)CO3)c1C (single isomer, unassigned) [Example 72] shows kinact/KI at minimum 4000 M⁻¹ s⁻¹?
N

Form field: kinact/KI at least 4000 M⁻¹ s⁻¹? Entry: Cc1noc(NC(=O)N2CCC3(CC2)CC(c2ccc(Cl)c(Cl)c2)CO3)c1C (racemic) [Example 15]
Y

###

compounds and their reported kinact/KI
# TARGET_DESC: human FAAH (Homo sapiens, UniProt O00519)
# Construct: made in house; host or cells: E. coli
# Sequence (O00519 1-579): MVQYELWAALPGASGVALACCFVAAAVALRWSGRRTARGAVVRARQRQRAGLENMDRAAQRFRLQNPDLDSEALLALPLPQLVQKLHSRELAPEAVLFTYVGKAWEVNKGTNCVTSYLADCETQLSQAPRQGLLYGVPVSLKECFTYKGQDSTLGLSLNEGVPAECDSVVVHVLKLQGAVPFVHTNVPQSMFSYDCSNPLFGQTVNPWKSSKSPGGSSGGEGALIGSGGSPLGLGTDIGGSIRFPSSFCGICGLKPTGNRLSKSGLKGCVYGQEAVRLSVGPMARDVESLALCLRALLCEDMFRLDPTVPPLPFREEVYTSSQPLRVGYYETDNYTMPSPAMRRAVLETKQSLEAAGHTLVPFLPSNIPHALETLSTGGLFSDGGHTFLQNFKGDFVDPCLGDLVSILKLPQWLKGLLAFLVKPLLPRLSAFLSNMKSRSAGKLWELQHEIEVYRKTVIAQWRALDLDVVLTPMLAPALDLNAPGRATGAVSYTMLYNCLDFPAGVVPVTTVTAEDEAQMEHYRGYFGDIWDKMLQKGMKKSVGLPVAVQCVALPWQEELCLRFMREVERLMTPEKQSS
# MEASUREMENT_NOTES: FAAH assay, human FAAH enzyme inactivation (kinact/Ki)
# Assay type: biochemical
# STUDY_CONDITIONS: pH 7.4, in vitro, oleamide 50 μM, 30° C., read-out: hFAAH kinact/Ki

# example entries with known answers
COMPOUND	RECORDED_MEASUREMENT
Cc1noc(NC(=O)N2CCC3(CC2)CC(c2ccc4ccccc4c2)CO3)c1C (racemic) [Example 25]	2090 M⁻¹ s⁻¹
Cc1noc(NC(=O)N2CCC3(CC2)C[C@H](c2ccc(OCc4ccc(F)c(F)c4)cc2)CO3)c1C [Example 51]	16700 M⁻¹ s⁻¹
Cc1noc(NC(=O)N2CCC3(CC2)CC(c2ccc(OCc4ccc(C(F)(F)F)cn4)cc2)CO3)c1C (racemic) [Example 32]	4120 M⁻¹ s⁻¹

The compound listed as O=C(Nc1cccnn1)N1CCC2(CC1)C[C@H](c1cccc(Oc3ccc(Br)cn3)c1)CO2 [Example 9] shows kinact/KI equal to 4970 M⁻¹ s⁻¹

kinact/KI reported for this compound O=C(Nc1cccnn1)N1CCC2(CC1)C[C@@H](c1cccc(Oc3ccc(Br)cn3)c1)CO2 [Example 10] : 2690 M⁻¹ s⁻¹

Measured kinact/KI, O=C(Nc1cccnn1)N1CCC2(CC1)C[C@@H](c1cccc(Oc3ccc(Cl)cn3)c1)CO2 [Example 12] : 2190 M⁻¹ s⁻¹

The compound identified as Cn1nnnc1NC(=O)N1CCC2(CC1)C[C@H](c1ccc(OCc3ccc(F)c(F)c3)cc1)CO2 [Example 88] registered its kinact/KI at 32600 M⁻¹ s⁻¹

###

# hFAAH kinact/Ki per entry
# TARGET_DESC: human FAAH (Homo sapiens, UniProt O00519)
# Construct: made in house; host or cells: E. coli
# MEASUREMENT_NOTES: FAAH assay, human FAAH enzyme inactivation (kinact/Ki)
# Assay type: biochemical
# STUDY_CONDITIONS: in vitro, oleamide 50 μM, 30° C., pH 7.4
I only need the number, in M⁻¹ s⁻¹, no unit after it.

Before answering, review these 5 worked examples.
MOLECULE	hFAAH kinact/Ki, M⁻¹ s⁻¹
Cc1noc(NC(=O)N2CCC3(CC2)CC(c2cc(F)cc(Cl)c2)CO3)c1C (single isomer, unassigned)	2470
Cc1noc(NC(=O)N2CCC3(CC2)CC(c2ccc(OCc4ccccc4Cl)c(Cl)c2)CO3)c1C (single isomer, unassigned) [Example 44]	1330
Cc1noc(NC(=O)N2CCC3(CC2)CC(c2cccc(OC(F)(F)F)c2)CO3)c1C (single isomer, unassigned)	1840
Cn1nnnc1NC(=O)N1CCC2(CC1)CC(c1noc(-c3ccc(C(F)(F)F)cc3)n1)CO2 (single isomer, unassigned)	5480
Cn1nnnc1NC(=O)N1CCC2(CC1)CC(c1cccc(OC(F)(F)F)c1)CO2 (single isomer, unassigned)	7100

Read the next record carefully.
Tested system human FAAH (Homo sapiens, UniProt O00519); hFAAH kinact/Ki recorded for Cc1noc(NC(=O)N2CCC3(CC2)CC(c2cccc(C(F)(F)F)c2)CO3)c1C (single isomer, unassigned) was 1330

###

# TARGET_DESC: rat FAAH (Rattus norvegicus, UniProt P97612)
# Construct: made in house; host or cells: E. coli
# Sequence (P97612 1-579): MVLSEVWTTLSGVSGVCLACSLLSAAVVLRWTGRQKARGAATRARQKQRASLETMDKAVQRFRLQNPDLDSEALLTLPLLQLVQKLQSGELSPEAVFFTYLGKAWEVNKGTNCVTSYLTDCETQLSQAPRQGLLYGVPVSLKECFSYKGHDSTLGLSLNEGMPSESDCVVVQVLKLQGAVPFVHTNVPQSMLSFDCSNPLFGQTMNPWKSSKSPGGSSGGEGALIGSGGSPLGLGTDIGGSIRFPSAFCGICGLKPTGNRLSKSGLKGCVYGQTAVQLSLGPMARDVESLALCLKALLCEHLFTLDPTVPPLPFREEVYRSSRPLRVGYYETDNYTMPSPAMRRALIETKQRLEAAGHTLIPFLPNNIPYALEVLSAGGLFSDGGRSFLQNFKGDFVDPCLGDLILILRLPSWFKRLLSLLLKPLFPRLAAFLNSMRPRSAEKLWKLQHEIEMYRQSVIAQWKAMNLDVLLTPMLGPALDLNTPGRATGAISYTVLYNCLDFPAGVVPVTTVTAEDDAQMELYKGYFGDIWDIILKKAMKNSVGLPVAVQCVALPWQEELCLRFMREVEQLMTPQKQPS
# MEASUREMENT_NOTES: FAAH assay, rat FAAH enzyme inactivation (kinact/Ki)
# Assay type: biochemical
# STUDY_CONDITIONS: pH 7.4, in vitro, oleamide 50 μM, 30° C., read-out: rFAAH kinact/Ki
Label Criterion met when kinact/KI is at or above 4000 M⁻¹ s⁻¹; otherwise label Criterion not met.

Solved entries:
COMPOUND	CLASS_ASSIGNMENT
Cc1noc(NC(=O)N2CCC3(CC2)CC(c2ccc(OCc4cc(F)ccc4F)cc2)CO3)c1C (racemic)	Criterion not met
Cn1nnnc1NC(=O)N1CCC2(CC1)CC(c1cccc(OC(F)(F)F)c1)CO2 (single isomer, unassigned)	Criterion met

Can Cc1noc(NC(=O)N2CCC3(CC2)CC(c2ccc(OCc4cccc(C(F)(F)F)n4)cc2)CO3)c1C (racemic) be said to have kinact/KI at or above 4000 M⁻¹ s⁻¹?
Criterion not met

Is kinact/KI at least 4000 M⁻¹ s⁻¹? Consider Cc1noc(NC(=O)N2CCC3(CC2)CC(c2cccc(-c4ccc(F)c(F)c4)c2)CO3)c1C (racemic)
Criterion not met

Would you say O=C(Nc1cccnn1)N1CCC2(CC1)CC(c1cccc(Oc3ccc(Br)cn3)c1)CO2 (racemic) shows kinact/KI at minimum 4000 M⁻¹ s⁻¹?
Criterion not met

Hello, I need to know if Cc1noc(NC(=O)N2CCC3(CC2)CC(c2noc(-c4ccc(C(F)(F)F)cc4)n2)CO3)c1C (racemic) [Example 74] has measured kinact/KI not below 4000 M⁻¹ s⁻¹. Thanks!
Criterion not met

Could you verify whether the entry Cc1noc(NC(=O)N2CCC3(CC2)C[C@@H](c2ccc(OCc4ccc(F)cc4)cc2)CO3)c1C shows kinact/KI of no less than 4000 M⁻¹ s⁻¹?
Criterion met

###

# TARGET_DESC: rat FAAH (Rattus norvegicus, UniProt P97612)
# Construct: made in house; host or cells: E. coli
# MEASUREMENT_NOTES: FAAH assay, rat FAAH enzyme inactivation (kinact/Ki)
# Format: biochemical
# STUDY_CONDITIONS: in vitro, oleamide 50 μM, 30° C., pH 7.4
READOUT_TYPE: rFAAH kinact/Ki
I'd appreciate it if you wrote the number followed by its unit.

COMPOUND	TARGET_DESC	rFAAH kinact/Ki
Cc1noc(NC(=O)N2CCC3(CC2)CC(c2cccc(C(F)(F)F)c2)CO3)c1C (single isomer, unassigned)	rat FAAH (Rattus norvegicus, UniProt P97612)	2680 M⁻¹ s⁻¹
Cn1nnnc1NC(=O)N1CCC2(CC1)CC(c1cccc(OC(F)(F)F)c1)CO2 (single isomer, unassigned)	rat FAAH (Rattus norvegicus, UniProt P97612)	3840 M⁻¹ s⁻¹
Cc1noc(NC(=O)N2CCC3(CC2)CC(c2cccc(OC(F)(F)F)c2)CO3)c1C (single isomer, unassigned)	rat FAAH (Rattus norvegicus, UniProt P97612)	2610 M⁻¹ s⁻¹
Cn1nnnc1NC(=O)N1CCC2(CC1)CC(c1cccc(Cl)c1)CO2 (single isomer, unassigned) [Example 79]	rat FAAH (Rattus norvegicus, UniProt P97612)	1970 M⁻¹ s⁻¹

With those in mind, consider the next compound.
Response field rFAAH kinact/Ki (rat FAAH (Rattus norvegicus, UniProt P97612)) for item Cc1noc(NC(=O)N2CCC3(CC2)CC(c2ccc(Cl)c(Cl)c2)CO3)c1C (single isomer, unassigned) : 2380 M⁻¹ s⁻¹
